System: SK-MEL-5 melanoma
Assay: NCI tumour cell line growth inhibition, 48 h
Give TGI for every item shown.

# molecule, result
data = [
    ("CC1=NN(C(=O)c2ccncc2)C(=O)C1", "> 100 µM"),
    ("Cc1ccccc1-n1c(=O)c2ncn(C3CCCO3)c2n(-c2ccccc2C)c1=S (stereo unspecified)", "> 100 µM"),
    ("CC1CC(C)C(C#N)N(C)c2ccccc21 (stereo unspecified)", "> 100 µM"),
    ("N#CC(=C1C=CC(=NO)C=C1)c1ccc(Cl)cc1", "21.3 µM"),
    ("C[C@@H]1CN(Cc2ccc(F)cc2)[C@@H](C)CN1C(=O)c1cc2c(C(=O)C(=O)N(C)C)cn(C)c2cc1Cl", "26 µM"),
]

// switching to the query molecule
Using the record for Nc1n[n+](CC(=O)c2ccccc2)c2sc(-c3ccccc3)nn12 , report its TGI.
> 100 µM

---

Tested on: K-562 leukemia
Assay: NCI tumour cell line growth inhibition, 48 h
Give TGI for every item shown.

Reference set (4 entries):
# molecule, result
records = [
    ("CC1(O)C=CC(=O)C=C1", "> 100 µM"),
    ("CC(=O)/C=C/c1cn(C(=O)OC(C)(C)C)c2ccc(Br)cc12", "> 54 µM"),
    ("O=C1OCC2=C1C(c1ccc(Cl)c(Cl)c1)c1cc3c(cc1N2CCO)OCCO3 (stereo not given)", "> 22.6 µM"),
    ("CN[C@@H](C)C(=O)N[C@H](C(=O)N1CCC[C@H]1C(=O)Nc1sc(-c2ncco2)nc1-c1ccccc1)C1CCCCC1", "63.6 µM"),
]

// switching to the query molecule
Using the record for CSc1nc2c(c(=O)[nH]1)N=C(c1ccc([N+](=O)[O-])cc1)CC(c1ccccc1)N2 (stereo not given) , report its TGI.
> 100 µM

---

Test system: UACC-257 melanoma
Experiment: NCI tumour cell line growth inhibition, 48 h
Where a SMILES comes first, the peptide text is derived from it. [ ]: non-standard residue; d: D form. The star is where a group is joined. NMeV = CN[C@H](C(=O)O)C(C)C; X29 = COc1ccc(CN*)c(OC)c1; Octanoyl = CCCCCCCC(=O)*; dNMeA = CN[C@H](C)C(=O)O
metric_name: log10 of TGI (log10 of the value in µM)
Please interpret these as log10 of TGI where TGI is in µM.

Reference set (5 entries):
# compound, target_of_assay, log10 of TGI
measured = [
    ("CC(C)NCCCn1c(Sc2cc3c(cc2I)OCO3)nc2c(N)ncnc21", "UACC-257 melanoma", 1.13),
    ("Cc1cc(S(=O)(=O)/N=C(/N)Nc2ccccc2O)c(SCc2ccccc2)cc1Cl", "UACC-257 melanoma", 1.48),
    ("Cc1[nH]c2ccccc2c1C(=O)CC1(O)C(=O)Nc2c(Cl)cc(Cl)cc21 (stereo unspecified)", "UACC-257 melanoma", 1.50),
    ("CCCCCCCC(=O)N[C@H](C(=O)N[C@H](C(=O)N(C)[C@H](C(=O)N1CCC[C@H]1C(=O)N(C)[C@H](C)C(=O)NCc1ccc(OC)cc1OC)C(C)C)C(C)C)C(C)C (Octanoyl-VV[NMeV]P[dNMeA]-X29)", "UACC-257 melanoma", 1.78),
    ("OCCNCCN1CCN(CCCN2c3ccccc3Sc3ccc(C(F)(F)F)cc32)CC1", "UACC-257 melanoma", 1.54),
]

// switching to the query compound
Using the record for O=C1c2cccnc2C(=O)c2c1c(C(=O)NCCCN1CCCCC1)c1ccccn21 , report its log10 of TGI.
0.34
